tested-target: T1, His-tagged CEACAM1 (human, UniProt P13688 35-428)
T1 construct: 45 kDa SPR analyte; also called CEACAM1-HIS; CEACAM1 analyte
T1 sequence: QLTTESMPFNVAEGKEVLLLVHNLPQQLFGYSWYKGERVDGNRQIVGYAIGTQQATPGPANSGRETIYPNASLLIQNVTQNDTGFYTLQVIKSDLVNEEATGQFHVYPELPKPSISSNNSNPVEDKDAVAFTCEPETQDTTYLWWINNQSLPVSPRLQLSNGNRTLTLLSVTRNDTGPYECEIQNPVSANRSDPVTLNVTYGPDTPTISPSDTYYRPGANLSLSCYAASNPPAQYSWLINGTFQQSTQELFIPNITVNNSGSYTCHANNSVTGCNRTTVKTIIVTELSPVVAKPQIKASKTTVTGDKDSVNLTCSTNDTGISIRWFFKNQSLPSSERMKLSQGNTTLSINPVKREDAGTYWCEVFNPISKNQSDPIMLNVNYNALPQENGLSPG
test-protocol: SPR single-cycle, supernatant IgG captured
I'd appreciate it if you could supply kon values for the items below.
Numbers only, in M⁻¹ s⁻¹.

Please review the entries below; each comes with its answer.
# binder, recorded-number
rows = [
    ("8H3_9E5/Vκ8 S29A (antibody, IgG4, V domains shown, IgG4 (S241P), kappa) VH: EVQLLESGGGLVQPGGSLRLSCAASGFIFSSHGMSWVRQAPGKGLEWVATISSGGTYTYYPDSVKGRFTISRDNSKNTLYLQMNSLKAEDTAMYYCARHGFDYFPYWFAHWGQGTLVTVSS VL: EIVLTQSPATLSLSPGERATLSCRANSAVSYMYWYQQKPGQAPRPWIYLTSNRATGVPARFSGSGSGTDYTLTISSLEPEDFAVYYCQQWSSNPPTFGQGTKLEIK", 81000),
    ("8H3_9E5/CP08E05 (antibody, IgG4, V domains shown, IgG4 (S241P), kappa) VH: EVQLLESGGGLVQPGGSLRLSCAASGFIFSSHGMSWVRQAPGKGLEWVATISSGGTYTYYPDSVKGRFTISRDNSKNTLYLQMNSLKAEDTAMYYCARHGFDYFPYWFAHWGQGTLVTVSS VL: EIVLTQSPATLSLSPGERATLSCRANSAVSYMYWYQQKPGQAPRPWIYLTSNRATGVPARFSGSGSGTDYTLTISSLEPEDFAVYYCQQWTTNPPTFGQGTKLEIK", 79000),
    ("8H3_9C2 (CDR1)/Vκ8 S29A (antibody, IgG4, V domains shown, IgG4 (S241P), kappa) VH: EVQLLESGGGLVQPGGSLRLSCAASEFTFSDHAMSWVRQAPGKGLEWVATISSGGTYTYYPDSVKGRFTISRDNSKNTLYLQMNSLKAEDTAMYYCARHDFDYFPYWFAHWGQGTLVTVSS VL: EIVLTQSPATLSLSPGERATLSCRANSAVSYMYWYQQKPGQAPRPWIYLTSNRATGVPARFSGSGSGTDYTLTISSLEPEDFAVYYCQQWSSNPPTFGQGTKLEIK", 88000),
]

Let's switch to this binder now.
Output kon of 8H3_9C2/Vκ8 S29A (antibody, IgG4, V domains shown, IgG4 (S241P), kappa) VH: EVQLLESGGGLVQPGGSLRLSCAASEFTFSDHAMSWVRQAPGKGLEWVATISSGGTYTYYPDSVKGRFTISRDNSKNTLYLQMNSLKAEDTAMYYCARHGFDYFPYWFAHWGQGTLVTVSS VL: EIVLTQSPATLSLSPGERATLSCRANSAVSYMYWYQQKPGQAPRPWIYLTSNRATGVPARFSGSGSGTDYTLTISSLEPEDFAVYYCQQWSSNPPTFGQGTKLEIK
65000
